Where these numbers come from: ChEMBL document CHEMBL1143819

Reported MIC90 values follow for various compounds
- System: Microsporum
- PROTOCOL TEXT: Antifungal activity against Microsporum sp. after 7 days by broth microdilution test
- Format: functional
- EXPERIMENTAL SETUP: 168 h
The response must be a number in mg/L with no trailing unit.

Illustrative cases are given below, each with its answer.
compound=CN(C/C=C/C#CC(C)(C)C)Cc1cccc2ccccc12 target_under_test=Microsporum unit_text=mg/L obs_value=0.125
compound=CCCCCCCCCCCCCCCCOP(=O)([O-])OCC[N+](C)(C)C target_under_test=Microsporum unit_text=mg/L obs_value=1
compound=CN(Cc1ccc(C(C)(C)C)cc1)Cc1cccc2ccccc12 target_under_test=Microsporum unit_text=mg/L obs_value=0.125
compound=CCCCCc1cc[n+](CCCCCCCCCCCC[n+]2ccc(CCCCC)cc2)cc1.[Cl-].[Cl-] target_under_test=Microsporum unit_text=mg/L obs_value=4

In the following, a different compound is considered.
[ask] Given CCC(C)n1ncn(-c2ccc(N3CCN(c4ccc(OCC5COC(Cn6cncn6)(c6ccc(Cl)cc6Cl)O5)cc4)CC3)cc2)c1=O (stereo not given) , report its MIC90 on Microsporum.
[reply] 8

---

- Test system: Trichophyton tonsurans
- PROTOCOL TEXT: Antifungal activity against Trichophyton tonsurans after 7 days by broth microdilution test
- Assay type: functional
- EXPERIMENTAL SETUP: 168 h
METRIC NAME: MIC90 (µg/mL)
Answer with a number only, understood to be in µg/mL.

Below are worked cases with known answers.
molecule=CCCCCCCCCCCCCCCCOP(=O)([O-])OCC[N+](C)(C)C unit_text=µg/mL obs_value=1
molecule="CCC(C)n1ncn(-c2ccc(N3CCN(c4ccc(OCC5COC(Cn6cncn6)(c6ccc(Cl)cc6Cl)O5)cc4)CC3)cc2)c1=O (centres undefined)" unit_text=µg/mL obs_value=4
molecule=CN(Cc1ccc(C(C)(C)C)cc1)Cc1cccc2ccccc12 unit_text=µg/mL obs_value=0.063

[ask] Complete the entry with MIC90 for CCCCCc1cc[n+](CCCCCCCCCCCC[n+]2ccc(CCCCC)cc2)cc1.[Cl-].[Cl-]
[reply] 8

---

- Tested on: Epidermophyton floccosum
- PROTOCOL TEXT: Antifungal activity against Epidermophyton floccosum after 7 days by broth microdilution test
- Assay type: functional
- EXPERIMENTAL SETUP: 168 h
# note: exactly 0.5 µg/mL is not below, so it is N; use Y for MIC strictly under it

A selection of reference data follows.
compound=CCCCCc1cc[n+](CCCCCCCCCCCC[n+]2ccc(CCCCC)cc2)cc1.[Cl-].[Cl-] class_name=N
compound="CN(Cc1ccc(C(C)(C)C)cc1)Cc1cccc2ccccc12 [BUTENAFINE]" class_name=Y
compound="CCC(C)n1ncn(-c2ccc(N3CCN(c4ccc(OCC5COC(Cn6cncn6)(c6ccc(Cl)cc6Cl)O5)cc4)CC3)cc2)c1=O (stereo not given) [ITRACONAZOLE]" class_name=Y

[ask] Is it true that MIC reported for CN(C/C=C/C#CC(C)(C)C)Cc1cccc2ccccc12 [TERBINAFINE] is less than 0.5 µg/mL?
[reply] Y

[ask] Is MIC strictly under 0.5 µg/mL for the entry CCCCCCCCCCCCCCCCOP(=O)([O-])OCC[N+](C)(C)C [MILTEFOSINE] ?
[reply] N

---

Each entry below carries its recorded MIC.
- System: Trichophyton tonsurans
- PROTOCOL TEXT: Antifungal activity against Trichophyton tonsurans after 7 days by broth microdilution test
- Type: functional
- EXPERIMENTAL SETUP: 168 h
Returns: string containing the number followed by the unit.

Reference set, count: 4
compound="CCC(C)n1ncn(-c2ccc(N3CCN(c4ccc(OCC5COC(Cn6cncn6)(c6ccc(Cl)cc6Cl)O5)cc4)CC3)cc2)c1=O (stereo not given)" obs_value="1.65 µg/mL"
compound=CCCCCc1cc[n+](CCCCCCCCCCCC[n+]2ccc(CCCCC)cc2)cc1.[Cl-].[Cl-] obs_value="2.8 µg/mL"
compound=CN(C/C=C/C#CC(C)(C)C)Cc1cccc2ccccc12 obs_value="0.03 µg/mL"
compound=CN(Cc1ccc(C(C)(C)C)cc1)Cc1cccc2ccccc12 obs_value="0.04 µg/mL"

Here is the next item to consider.
[ask] Dear colleague, please send me the reported MIC for CCCCCCCCCCCCCCCCOP(=O)([O-])OCC[N+](C)(C)C when you can.
[reply] 0.398 µg/mL
